settings: Ebola virus entry assay, blue channel fluorescence
Active and inactive are the calls of the source.
Classes used: 1 = active, -1 = inactive

compound=CCC[C@H](N[C@@H](C)C(=O)N1[C@H](C(=O)O)C[C@@H]2CCCC[C@@H]21)C(=O)OCC class_name=-1
compound=CC(=O)[C@]1(O)Cc2c(O)c3c(c(O)c2[C@@H](O[C@H]2C[C@H](N)[C@H](O)[C@H](C)O2)C1)C(=O)c1ccccc1C3=O class_name=1
compound="CCN(CC)CCCC(C)Nc1ccnc2cc(Cl)ccc12 (stereo not given)" class_name=1
compound=COCCCC/C(=N\OCCN)c1ccc(C(F)(F)F)cc1 class_name=1
compound=CC[C@@]1(c2ccccc2)NC(=O)N(C)C1=O class_name=-1

* * *

This section presents molecules with their documented max response values.
tested on: KB-3-1; assay: Cytotoxic Profiling of Annotated Libraries Using Quantitative High-Throughput Screening (AID 1296008); settings: Five cell lines viability, CellTiter-Glo ATP luminescence, 48-72 h; active compounds read low; further: on the % scale 0 is the no-effect control and ±100 the full control effect; nearly all actives have a fitted effect of over 60% in size
Results filed as inconclusive are left out.
readout.name: max response (%)

molecule=CC[C@@H](CO)NC(=O)[C@@H]1C=C2c3cccc4[nH]cc(c34)C[C@H]2N(C)C1 reported_measurement=37.2
molecule="CC(C)(C)NCC(O)c1cc(Cl)c(N)c(Cl)c1 (centres undefined)" reported_measurement=-14.9
molecule=NP(N)(=O)NC(=O)c1ccc(F)cc1 reported_measurement=-13.3
molecule=CC(=O)Nc1cc([As](=O)(O)O)ccc1O reported_measurement=5.7
molecule=CN1C[C@H](CNC(=O)OCc2ccccc2)C[C@@H]2c3cccc4c3c(cn4C)C[C@H]21 reported_measurement=-8.28
molecule=CC(C)=CCOc1c2occc2cc2ccc(=O)oc12 reported_measurement=-18.5
molecule=O=C1CC[C@@]2(O)[C@H]3Cc4ccc(O)c5c4[C@@]2(CCN3CC2CC2)[C@H]1O5 reported_measurement=6.29
molecule="CNCC(O)c1ccc(O)cc1 (centres undefined)" reported_measurement=12.6
molecule="NCC(CC(=O)O)c1ccc(Cl)cc1 (centres undefined)" reported_measurement=2.79
molecule=CC[C@@H](CO)NC(=O)[C@@H]1C=C2c3cccc4c3c(cn4C)C[C@H]2N(C)C1 reported_measurement=-9.77
molecule="NCC(O)c1ccc(O)cc1 (centres undefined)" reported_measurement=-4.37
molecule="COC[C@H]1OC(=O)c2coc3c2[C@@]1(C)C1=C(C3=O)C2CCC(=O)[C@@]2(C)C[C@H]1OC(C)=O (some centres undefined)" reported_measurement=-5.47
molecule=O=C(O)P(=O)(O)O reported_measurement=-7.16
molecule="CCC(C(N)=O)N1CCCC1=O (centres undefined)" reported_measurement=-5.57
molecule=N[C@@H](Cc1ccc(Oc2cc(I)c(O)c(I)c2)c(I)c1)C(=O)O reported_measurement=6.84
molecule="CCCC(C)(COC(N)=O)COC(=O)NC(C)C (centres undefined)" reported_measurement=-16.5
molecule="CC(C)=CC1C(C(=O)OCc2cccc(Oc3ccccc3)c2)C1(C)C (centres undefined)" reported_measurement=3.42
molecule="O=C(NC(O)C(Cl)(Cl)Cl)NC(O)C(Cl)(Cl)Cl (centres undefined)" reported_measurement=2.53
molecule=CCN(CC)CCN1C(=O)CN=C(c2ccccc2F)c2cc(Cl)ccc21 reported_measurement=-5.99
molecule="CCC(=O)C(CC(C)N(C)C)(c1ccccc1)c1ccccc1 (centres undefined)" reported_measurement=-25
molecule="COC1(CS(=O)c2ccccc2)CCN(CCc2c[nH]c3ccc(F)cc23)CC1 (centres undefined)" reported_measurement=-9.1
molecule=N#CC(C#N)=Cc1ccc(O)c(O)c1 reported_measurement=1.48
molecule=Cc1ccc(S(=O)(=O)N[C@@H](CCCCN)C(=O)CCl)cc1 reported_measurement=32.5
molecule=CCN(CC)CCOC(=O)C(O)(c1ccccc1)c1ccccc1 reported_measurement=-1.34

* * *

Assay: MultiTox-Fluor Cytotoxicity Assay - LYMP1-002 - Live Cells (AID 955);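 further: cells exposed to compound for 16 hours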
Details: LYMP1-002 lymphoblastoid live-cell protease fluorescence viability; series mostly up to 46.1 µM
Text: NIH Chemical Genomics Center [NCGC] NIH Molecular Libraries Screening Centers Network [MLSCN] National Institutes of Environmental Health Sciences [NIEHS] National Toxicology Program [NTP] We have developed a 1536-well cell-based assay for quantitative high throughput screening (qHTS) against a number of cell lines to determine in vitro cytotoxicity of small molecules. […] 8. Detection; live-cell fluorescence (Ex/Em=405/510); EnVision plate reader […]
Inconclusive results are not listed. Activity calls are given as the source filed them. Calls come from the whole dose curve; as a rule, active = well fitted cell-killing curve with a large enough effect; inconclusive = small, poorly fitted or top-dose-only effect, or effect the other way; inactive = flat fitted curve, though single readings scatter.
Classes used: active, inactive

compound=Oc1ccccc1-c1ccccc1 class_name=inactive
compound=CC(=O)Oc1ccccc1C(=O)Nc1ncc([N+](=O)[O-])s1 class_name=active
compound=Oc1cccc2cccnc12 class_name=inactive
compound=N[C@@H](Cc1ccc(N(CCCl)CCCl)cc1)C(=O)O class_name=inactive
compound=Oc1ccc(Cl)cc1Cc1ccccc1 class_name=inactive
compound="NCC(O)c1ccc(O)cc1 (stereo unspecified)" class_name=inactive
compound="Clc1ccc(COC(Cn2ccnc2)c2ccc(Cl)cc2Cl)cc1 (stereo unspecified)" class_name=inactive
compound="CCCC(C)(COC(N)=O)COC(=O)NC(C)C (stereo unspecified)" class_name=inactive
compound=CCOP(=S)(OCC)Oc1cc(C)nc(C(C)C)n1 class_name=inactive
compound="CNCC(O)c1ccc(O)cc1 (stereo unspecified)" class_name=inactive
compound=c1ccc2c(c1)Nc1ccccc1S2 class_name=inactive

* * *

assay: qHTS assay for small molecule disruptors of the mitochondrial membrane potential - 5 hr assay (AID 651755); settings: JC-1-type ratio dye; series mostly up to 92.2 µM; further: nearly all actives have a fitted effect of over 40% in size
Records with an inconclusive call do not appear. Calls of active or inactive are those of the source. Calls follow the shape of the full dose curve.
Classes used: t (active), f (inactive)

smiles_notation=CC(=O)Oc1ccccc1C(=O)Nc1ncc([N+](=O)[O-])s1 class_name=t
smiles_notation=N[C@@H](Cc1ccc(N(CCCl)CCCl)cc1)C(=O)O class_name=f
smiles_notation=C[C@]12C/C(=C/O)C(=O)C[C@@H]1CC[C@@H]1[C@@H]2CC[C@@]2(C)[C@H]1CC[C@]2(C)O class_name=f
smiles_notation=OCCOc1ccccc1 class_name=f
smiles_notation=c1ccc2c(c1)Nc1ccccc1S2 class_name=t

* * *

experiment: qHTS Screen of the MIPE 4.0 Collection Against Ewings Sarcoma (TC32) (AID 1259256); conditions: TC32 Ewing sarcoma viability, CellTiter-Glo, 48 h; series mostly up to 45.8 µM; further: nearly all actives have a fitted effect of over 45% in size; further: potency means the concentration at half of the fitted maximal effect
Results filed as inconclusive are left out. Calls of active or inactive are those of the source. The call rests on the fitted dose curve; in most records, active means well fitted inhibition curve with a large enough effect; inconclusive means small, poorly fitted or top-dose-only effect; inactive means no such curve, though single readings can be large or run the other way.
readout.name: Potency

compound=COc1ccc(C(=O)c2c(C)n(CCN3CCOCC3)c3ccccc23)cc1 reported_measurement=inactive
compound="CNC(=O)N1N=C(c2ccc(N)cc2)c2cc3c(cc2CC1C)OCO3 (stereo not drawn)" reported_measurement="11.8 µM (active)"
compound="CNCC(O)c1ccc(O)cc1 (stereo not drawn)" reported_measurement=inactive

* * *

system: Nanoluciferase (engineered Oplophorus gracilirostris luciferase); assay: Primary Nanoluciferase (NLuc) qHTS assay for identification of artifact compounds. (AID 1845222); settings: NLuc-conditioned medium, Nano-Glo luminescence, 5 min; series mostly up to 54.1 µM;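 further: NLuc secreted into diluted conditioned medium of S16 cells; 0% = DMSO and -100% = no enzyme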
Active and inactive are the calls of the source. The call rests on the fitted dose curve; in most records, active means well fitted inhibition curve with a large enough effect; inconclusive means small, poorly fitted or top-dose-only effect; inactive means flat fitted curve, though single readings scatter.
readout.name: outcome

molecule=O=c1[nH]c2ccccc2n1C1CCN(CCCC(c2ccc(F)cc2)c2ccc(F)cc2)CC1 readout_name=outcome reported_measurement=inactive
molecule="CNC(=O)N1N=C(c2ccc(N)cc2)c2cc3c(cc2CC1C)OCO3 (stereo not given)" readout_name=outcome reported_measurement=inactive
molecule="CC(O)(CS(=O)(=O)c1ccc(F)cc1)C(=O)Nc1ccc(C#N)c(C(F)(F)F)c1 (stereo not given)" readout_name=outcome reported_measurement=inactive
molecule=Cc1cc(SCc2sc(-c3ccc(C(F)(F)F)c(F)c3)nc2C)ccc1OCC(=O)O readout_name=outcome reported_measurement=inactive
molecule=CNC(=O)c1ccc(N2C(=S)N(c3ccc(C#N)c(C(F)(F)F)c3)C(=O)C23CCC3)cc1F readout_name=outcome reported_measurement=inactive

* * *

Test: qHTS of pediatric cancer cell lines to identify multiple opportunities for drug repurposing: Primary screen for A673 cells (AID 1347092); further: nearly all actives have a fitted effect of over 45% in size
Conditions: A673 Ewing sarcoma viability, CellTiter-Glo ATP luminescence, 48 h; series mostly up to 46 µM
Method: Drug repurposing or repositioning has been offered as a strategy for drug development in oncology programs. […] We employed a titration-based paradigm (quantitative high-throughput screening or qHTS), where all compounds were tested at multiple concentrations for their effect on cell viability. […] Shen, M et al. Quantitative high-throughput phenotypic screening of pediatric cancer cell lines identifies multiple opportunities for drug repurposing. […]
Records with an inconclusive call do not appear. The source made the active and inactive calls. Calls come from the whole dose curve; as a rule, active = well fitted cell-killing curve with a large enough effect; inconclusive = small, poorly fitted or top-dose-only effect; inactive = no such curve, though single readings can be large or run the other way.
Classes used: 1 (yes) (active), 0 (no) (inactive)

compound=CC(C)=CCOc1c2occc2cc2ccc(=O)oc12 class_name="0 (no)"
compound=O=[N+]([O-])c1cc([As](=O)(O)O)ccc1O class_name="0 (no)"
compound=CNC(=O)c1ccc(N2C(=S)N(c3ccc(C#N)c(C(F)(F)F)c3)C(=O)C23CCC3)cc1F class_name="1 (yes)"
compound="CC(C)=CC1C(C(=O)OCc2cccc(Oc3ccccc3)c2)C1(C)C (stereo not drawn)" class_name="0 (no)"
compound=COc1ccccc1N1CCNCC1 class_name="0 (no)"
compound=CN1CCN(C(=O)O[C@H]2c3nccnc3C(=O)N2c2ccc(Cl)cn2)CC1 class_name="0 (no)"
compound=c1ccc2c(c1)Nc1ccccc1S2 class_name="0 (no)"
compound=CCN(CC)C(=O)N[C@@H]1C=C2c3cccc4[nH]cc(c34)C[C@@H]2N(C)C1 class_name="0 (no)"
compound=COc1ccc(C(=O)c2c(C)n(CCN3CCOCC3)c3ccccc23)cc1 class_name="0 (no)"
compound=Cn1c(CCCC(=O)O)nc2cc(N(CCCl)CCCl)ccc21 class_name="0 (no)"
compound=CC(=O)Nc1cc([As](=O)(O)O)ccc1O class_name="0 (no)"
compound=CCOP(=S)(OCC)Oc1cc(C)nc(C(C)C)n1 class_name="0 (no)"
compound=CC(C)(N)Cc1ccc(Cl)cc1 class_name="0 (no)"
compound=O=C(O)C(=O)c1cn(Cc2ccccc2)c2ccc(-c3ccc(OC(F)(F)F)cc3)cc12 class_name="0 (no)"
compound=Oc1ccccc1-c1ccccc1 class_name="0 (no)"
compound=CCCN1CCC[C@@H]2Cc3[nH]ncc3C[C@H]21 class_name="0 (no)"
compound=NN=C(N)N class_name="0 (no)"
compound=CC(=O)[C@H]1CC[C@H]2[C@@H]3CC[C@H]4C[C@H](O)CC[C@]4(C)[C@H]3C(=O)C[C@]12C class_name="0 (no)"
compound="CC(C)CC(N(C)C)C1(c2ccc(Cl)cc2)CCC1 (stereo not drawn)" class_name="0 (no)"
compound=CN(C)CCc1ccc(O)cc1 class_name="0 (no)"
compound=Clc1cccc(N2CCNCC2)c1 class_name="0 (no)"
compound=Fc1ccc(C(OCCN2CCN(CCCc3ccccc3)CC2)c2ccc(F)cc2)cc1 class_name="1 (yes)"
compound=CCN(CC)CCN1C(=O)CN=C(c2ccccc2F)c2cc(Cl)ccc21 class_name="0 (no)"
compound=CC(=O)[C@H]1CC[C@H]2[C@@H]3CC[C@H]4C[C@](C)(O)CC[C@]4(C)[C@H]3CC[C@]12C class_name="0 (no)"
compound="CC(O)(CS(=O)(=O)c1ccc(F)cc1)C(=O)Nc1ccc(C#N)c(C(F)(F)F)c1 (stereo not drawn)" class_name="1 (yes)"
compound=NCCc1cc(O)c(O)cc1O class_name="0 (no)"
compound=CC[C@@H](CO)NC(=O)[C@@H]1C=C2c3cccc4[nH]cc(c34)C[C@H]2N(C)C1 class_name="0 (no)"
compound="COc1ccc(C(CN(C)C)C2(O)CCCCC2)cc1 (stereo not drawn)" class_name="0 (no)"
compound=CN(C)[C@@H]1C(=O)C(C(N)=O)=C(O)[C@@]2(O)C(=O)C3=C(O)c4c(O)cccc4[C@@](C)(O)[C@H]3C[C@@H]12 class_name="0 (no)"
compound=NP(N)(=O)NC(=O)c1ccc(F)cc1 class_name="0 (no)"
compound="CC[N+]1(C)CCCC(OC(=O)C(O)(c2ccccc2)c2ccccc2)C1 (stereo not drawn)" class_name="0 (no)"
compound="O=C(NC(O)C(Cl)(Cl)Cl)NC(O)C(Cl)(Cl)Cl (stereo not drawn)" class_name="0 (no)"
compound=O=C(O)c1ccc2[nH]cc(CCCCN3CC=C(c4ccccc4)CC3)c2c1 class_name="0 (no)"
compound=C#CCOC(C(=O)OCCN(C)C)(c1ccccc1)c1ccccc1 class_name="0 (no)"
compound=CN(C)CCN(C)CCc1ccc(Cl)c(Cl)c1 class_name="0 (no)"
compound="CCCC1CCCCN1 (stereo not drawn)" class_name="0 (no)"
compound="NCC(O)c1ccc(O)cc1 (stereo not drawn)" class_name="0 (no)"
compound=N[C@@H]1C[C@H]1c1ccccc1 class_name="0 (no)"

Every entry's value here was drawn from PubChem BioAssay (NCATS).
